Target: T1, Tau(pS422) fragment SEQ ID NO: 03 (human)
T1 construct: also called phosphorylated tau peptide
T1 peptide: SIDMVD[pS]PQLATLAD
Assay: ELISA
Non-standard residues stand in square brackets, D forms with d. No end group written: not given here. pS = N[C@@H](COP(=O)(O)O)C(=O)O
Record form. Attribute: EC50. Fill in for each entry.
Give bare numbers, in µg/mL.

Consider the worked cases shown below.
# binder, EC50 (µg/mL)
data = [
    ("VH35H5/VL49G1 (antibody, V domains shown, IgG captured via anti-human Fc; also called antibody 2) VH: EVQVLESGGGLVQPGGSLRLSCAVSGISLSSNAINWVRQAPGKGLEWVGYIAVSGNTYYASWAKGRFTISRDNSKNTVYLQMNSLRAEDTAVYYCGKSNIWGQGTLVTVSS VL: AQVMTQSPSSLSASVGDRVTITCRSSQSVRSNKLAWFQQKPGQPPKRLIYSASNLDYGVPSRFSGSGSGTEFTLTISSLQPEDFATYYCLGYFDSSADIVAFGGGTKVEIK", 0.034),
    ("VH35H5/VL35F2 (antibody, V domains shown, IgG captured via anti-human Fc) VH: EVQVLESGGGLVQPGGSLRLSCAVSGISLSSNAINWVRQAPGKGLEWVGYIAVSGNTYYASWAKGRFTISRDNSKNTVYLQMNSLRAEDTAVYYCGKSNIWGQGTLVTVSS VL: AQVMTQSPSSLSASVGDRVTITCRSSQSVRTNKLAWFQQKPGQPPKRLIYSASTLDFGVPSRFSGSGSGTEFTLTISSLQPEDFATYYCLGYFDSPLDIVAFGGGTKVEIK", 0.0452),
]

# per-item lookup of EC50; items listed below
1. VH35H5/VL31A1 (antibody, V domains shown, IgG captured via anti-human Fc; also called antibody 1) VH: EVQVLESGGGLVQPGGSLRLSCAVSGISLSSNAINWVRQAPGKGLEWVGYIAVSGNTYYASWAKGRFTISRDNSKNTVYLQMNSLRAEDTAVYYCGKSNIWGQGTLVTVSS VL: AQVMTQSPSSLSASVGDRVTITCRSSQSVRNNKLAWFQQKPGQPPKRLIYSASDLDYGVPSRFSGSGSGTEFTLTISSLQPEDFATYYCLGYFDSSADIVAFGGGTKVEIK
2. VH32/VL22 (antibody, V domains shown, full size IgG) VH: EVQVLESGGGLVQPGGSLRLSCAVSGFSLSSNAINWVRQAPGKGLEWVGYIAVSGNTYYASWAKGRFTISRDNSKNTVYLQMNSLRAEDTAVYYCGKSNIWGQGTLVTVSS VL: AQVMTQSPSSLSASVGDRVTITCRSSQSVRTNRLAWFQQKPGQPPKRLIYSASTLDYGVPSRFSGSGSGTEFTLTISSLQPEDFATYYCLGYFDSSADIVAFGGGTKVEIK
3. VH32/VL4G1 (antibody, V domains shown) VH: EVQVLESGGGLVQPGGSLRLSCAVSGFSLSSNAINWVRQAPGKGLEWVGYIAVSGNTYYASWAKGRFTISRDNSKNTVYLQMNSLRAEDTAVYYCGKSNIWGQGTLVTVSS VL: AQVMTQSPSSLSASVGDRVTITCRSSQSVRTNKLAWFQQKPGQPPKRLIYSASTLDFGVPSRFSGSGSGTEFTLTISSLQPEDFATYYCLGYFDSPADIVAFGGGTKVEIK

Return:
1: 0.033; 2: 0.0404; 3: 0.0273
